- Test System: C1b domain of human PKCδ (Homo sapiens)
- Construct: Genes encoding C1b domains of human PKCα, δ, ε, θ, and PKD1 (PKCμ) were synthesized; made in house; host or cells: E. coli BL21(DE3)
- Sequence (Q05655 230-280 limits assumed): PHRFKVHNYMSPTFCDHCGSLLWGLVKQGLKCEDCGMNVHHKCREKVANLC
- Assay Details: Competitive 3H-PDBu binding to C1b domain of PKCδ
- Condition Label: Ki PKCδ, 3H-PDBu competition
pKi: −log10 of the molar value.
Measured Quantity: pKi

INSERT INTO measurements (chemical_structure, reported) VALUES
  ('CC1=C[C@H]2[C@@]3(O)[C@H](C)C[C@]4(OC(=O)[C@@H](N)Cc5ccc(C(F)(F)F)cc5)[C@H]([C@@H]3C=C(CO)C[C@]2(O)C1=O)C4(C)C', '8.00 to 8.30'),
  ('CC1=C[C@H]2[C@@]3(O)[C@H](C)C[C@]4(OC(=O)[C@@H](N)CCS(C)(=O)=O)[C@H]([C@@H]3C=C(CO)C[C@]2(O)C1=O)C4(C)C', '6.10 to 6.40'),
  ('CC1=C[C@H]2[C@@]3(O)[C@H](C)C[C@]4(OC(=O)[C@H](N)CCc5ccc(C(F)(F)F)cc5)[C@H]([C@@H]3C=C(CO)C[C@]2(O)C1=O)C4(C)C', '7.22 to 7.52');

====

- System: Panc2.13 (Pancreatic) cell line
- Assay Details: Proliferation of Panc2.13
- Assay type: cell-based
- Condition Label: Panc2.13; value in parenthesis
# ratio of (IC50 of K01)/(IC50 of compound), Panc2.13 per record follows
Measured Quantity: ratio of (IC50 of K01)/(IC50 of compound), Panc2.13

INSERT INTO results (chemical_structure, reported) VALUES
  ('CC/C=C\C/C=C\C/C=C\C/C=C\C/C=C\C/C=C\CCC(=O)O[C@@]12C[C@@H](C)[C@@]3(O)[C@@H](C=C(CO)C[C@]4(O)C(=O)C(C)=C[C@@H]34)[C@@H]1C2(C)C', 157),
  ('CC1=C[C@H]2[C@@]3(O)[C@H](C)C[C@]4(OC(=O)[C@@H](N)[C@]56C[C@H]7C[C@H](C[C@H](C7)C5)C6)[C@H]([C@@H]3C=C(CO)C[C@]2(O)C1=O)C4(C)C', 71.7),
  ('CC1=C[C@H]2[C@@]3(O)[C@H](C)C[C@]4(OC(=O)[C@@H](N)CCCCCCc5ccccc5)[C@H]([C@@H]3C=C(CO)C[C@]2(O)C1=O)C4(C)C', 57.3),
  ('CC1=C[C@H]2[C@@]3(O)[C@H](C)C[C@]4(OC(=O)[C@@H](N)Cc5ccc(C(F)(F)F)cc5)[C@H]([C@@H]3C=C(CO)C[C@]2(O)C1=O)C4(C)C', 6.79),
  ('CC1=C[C@H]2[C@@]3(O)[C@H](C)C[C@]4(OC(=O)[C@@H](N)CC5CCCCC5)[C@H]([C@@H]3C=C(CO)C[C@]2(O)C1=O)C4(C)C', 7.1),
  ('CC1=C[C@H]2[C@@]3(O)[C@H](C)C[C@]4(OC(=O)[C@@H](N)Cc5ccccc5)[C@H]([C@@H]3C=C(CO)C[C@]2(O)C1=O)C4(C)C', 0.75),
  ('CC1=C[C@H]2[C@@]3(O)[C@H](C)C[C@]4(OC(=O)[C@@H](N)CCc5ccccc5)[C@H]([C@@H]3C=C(CO)C[C@]2(O)C1=O)C4(C)C', 4.28),
  ('CC1=C[C@H]2[C@@]3(O)[C@H](C)C[C@]4(OC(=O)C(C)(C)C)[C@H]([C@@H]3C=C(CO)C[C@]2(O)C1=O)C4(C)C', 6.29),
  ('CC1=C[C@H]2[C@@]3(O)[C@H](C)C[C@]4(OC(=O)[C@H](N)CCCCCCc5ccccc5)[C@H]([C@@H]3C=C(CO)C[C@]2(O)C1=O)C4(C)C', 13.4),
  ('CC1=C[C@H]2[C@@]3(O)[C@H](C)C[C@]4(OC(=O)[C@@H](N)CCCc5ccccc5)[C@H]([C@@H]3C=C(CO)C[C@]2(O)C1=O)C4(C)C', 3.65),
  ('CC1=C[C@H]2[C@@]3(O)[C@H](C)C[C@]4(OC(=O)[C@@H](N)CCC5CCCCC5)[C@H]([C@@H]3C=C(CO)C[C@]2(O)C1=O)C4(C)C', 20.5),
  ('CC1=C[C@H]2[C@@]3(O)[C@H](C)C[C@]4(OC(=O)[C@@H](N)C5Cc6ccccc6C5)[C@H]([C@@H]3C=C(CO)C[C@]2(O)C1=O)C4(C)C', 5.82);
